- Test system: A498
- experimental details: NCI tumour cell line growth inhibition, 48 h
Activity calls are given as the source filed them. Cut-off read from the data, not from the text of the source: active = GI50 up to about 1.1 µM and inactive = higher.
Let's look at some compounds and their measured GI50.
measured attribute: GI50

>  <compound>
N#Cc1c(N)c(C#N)c2c(c1-c1ccc(Cl)cc1)COc1ccccc1-2

>  <reported result>
18.2 µM (inactive)

$$$$
>  <compound>
Cc1c/c(=N\c2ccc3c(c2)c(N)cc(C)[n+]3C)nc(N)n1C

>  <reported result>
> 100 µM (inactive)

$$$$
>  <compound>
C/C(O)=C/C(=O)c1[nH]c(C(=O)O)cc1C1CCN(Cc2ccccc2)C1=O (stereo not given)

>  <reported result>
41.1 µM (inactive)

$$$$
>  <compound>
Oc1ccc(/C=C\c2nnc(/C=C\c3ccc(O)c(O)c3)s2)cc1O

>  <reported result>
9.16 µM (inactive)

$$$$
>  <compound>
O=C(NC1C(=O)NNC1c1ccccc1Cl)c1ccccc1 (stereo not given)

>  <reported result>
> 100 µM (inactive)

$$$$
>  <compound>
CC1CCCc2c(CC3CC(=O)NC(=O)C3)n[nH]c21 (stereo not given)

>  <reported result>
> 100 µM (inactive)

$$$$
>  <compound>
Cc1cccc(-c2nnc3s/c(=C\c4ccc5c(c4)OCO5)c(=O)n23)c1

>  <reported result>
> 100 µM (inactive)

$$$$
>  <compound>
[N-]=[N+]=Nc1c(Cl)c(Cl)nc2ccccc12

>  <reported result>
81.5 µM (inactive)

$$$$
>  <compound>
Nc1ccc2c(c1)Cc1ccccc1-2

>  <reported result>
49 µM (inactive)

$$$$
>  <compound>
C1CSC2=C(S1)SC1=C(S2)SC(=C2SC3=C(SC4=C(SCCS4)S3)S2)S1

>  <reported result>
> 100 µM (inactive)

$$$$
>  <compound>
COC(=O)c1cc(/C=C\c2cc(OC)ccc2OC)ccc1OC

>  <reported result>
28.7 µM (inactive)

$$$$
>  <compound>
Cc1nc(N)sc1C(=O)/C=C/c1ccc([N+](=O)[O-])cc1

>  <reported result>
> 100 µM (inactive)

$$$$
>  <compound>
CCC1([N+](=O)[O-])CN(N=O)C1

>  <reported result>
> 100 µM (inactive)

$$$$
>  <compound>
Cc1ccc(NC(=O)C(=O)C2C(=O)NC(=O)NC2=O)c(C)c1

>  <reported result>
> 100 µM (inactive)

$$$$
>  <compound>
O=S1(=O)CCC2=CC(C(F)(F)F)=CC(C(F)(F)F)=CN21

>  <reported result>
2.08 µM (inactive)

$$$$

# credit: ChEMBL document CHEMBL1201862
